# ASSAY_PROCEDURE: Determination of pharmacokinetic parameters following intravenous and oral administration (rats)
# Format: in vivo, male Wistar rats
# RUN_CONDITIONS: male, Wistar, rat, plasma, following intravenous and peroral administration, read-out: MRT (Mean Residence Time)
# Method: B-6. Determination of Pharmacokinetic Parameters Following Intravenous and Oral Administration The pharmacokinetic parameters of the compounds according to the invention are determined in male CD-1 mice, male Wistar rats and female beagles. […] The substances are quantified via the peak heights or areas from extracted ion chromatograms of specific selected ion monitoring experiments. […]
MRT overview
Give the quantity in h, number only.

Past entries and their recorded results:
{"COMPOUND": "Cc1cc(OCc2ncccc2F)c2nc(C)c(C(=O)NC(CCCC(F)(F)F)C(C)(C)O)n2c1 (single isomer, unassigned; ent-8) [Example 181]", "MRT / h": 3.3}
{"COMPOUND": "Cc1nc2c(OCc3ncccc3F)cc(Cl)cn2c1C(=O)NC(CCCC(F)(F)F)C(C)(C)O (single isomer, unassigned; ent-6) [Example 188]", "MRT / h": 2.5}
{"COMPOUND": "Cc1cc(OCc2ncccc2F)c2nc(C)c(C(=O)NC(CCC(F)(F)C(F)(F)F)C(C)(C)O)n2c1 (single isomer, unassigned; ent-8) [Example 187]", "MRT / h": 4}

Entry Cc1nc2c(OCc3ncccc3F)cc(Cl)cn2c1C(=O)NC(CCC(F)(F)C(F)(F)F)C(C)(C)O (single isomer, unassigned; ent-6) [Example 194] ; MRT = 8.4

====

# EXPERIMENTAL_SYSTEM: recombinant guanylate cyclase reporter cell line (Rattus norvegicus, UniProt P19686+P20595)
# Construct: expressed in transfected cells
# Sequence (P20595 whole entry): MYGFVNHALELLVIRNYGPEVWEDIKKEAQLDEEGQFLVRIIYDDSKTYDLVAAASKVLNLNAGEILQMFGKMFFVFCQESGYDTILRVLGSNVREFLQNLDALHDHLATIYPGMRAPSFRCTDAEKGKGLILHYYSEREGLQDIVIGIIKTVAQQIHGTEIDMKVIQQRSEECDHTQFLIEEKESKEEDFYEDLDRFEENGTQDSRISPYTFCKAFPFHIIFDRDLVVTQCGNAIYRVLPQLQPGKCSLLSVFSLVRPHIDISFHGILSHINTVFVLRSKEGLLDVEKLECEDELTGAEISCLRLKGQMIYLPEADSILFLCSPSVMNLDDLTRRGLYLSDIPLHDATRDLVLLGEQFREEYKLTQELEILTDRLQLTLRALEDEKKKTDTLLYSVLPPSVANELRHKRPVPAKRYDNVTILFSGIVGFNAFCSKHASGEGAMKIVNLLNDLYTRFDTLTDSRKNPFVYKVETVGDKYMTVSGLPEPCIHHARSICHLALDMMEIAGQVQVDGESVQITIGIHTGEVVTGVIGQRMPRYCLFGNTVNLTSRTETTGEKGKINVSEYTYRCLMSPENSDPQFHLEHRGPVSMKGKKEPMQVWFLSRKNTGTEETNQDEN
# Sequence (P19686 whole entry): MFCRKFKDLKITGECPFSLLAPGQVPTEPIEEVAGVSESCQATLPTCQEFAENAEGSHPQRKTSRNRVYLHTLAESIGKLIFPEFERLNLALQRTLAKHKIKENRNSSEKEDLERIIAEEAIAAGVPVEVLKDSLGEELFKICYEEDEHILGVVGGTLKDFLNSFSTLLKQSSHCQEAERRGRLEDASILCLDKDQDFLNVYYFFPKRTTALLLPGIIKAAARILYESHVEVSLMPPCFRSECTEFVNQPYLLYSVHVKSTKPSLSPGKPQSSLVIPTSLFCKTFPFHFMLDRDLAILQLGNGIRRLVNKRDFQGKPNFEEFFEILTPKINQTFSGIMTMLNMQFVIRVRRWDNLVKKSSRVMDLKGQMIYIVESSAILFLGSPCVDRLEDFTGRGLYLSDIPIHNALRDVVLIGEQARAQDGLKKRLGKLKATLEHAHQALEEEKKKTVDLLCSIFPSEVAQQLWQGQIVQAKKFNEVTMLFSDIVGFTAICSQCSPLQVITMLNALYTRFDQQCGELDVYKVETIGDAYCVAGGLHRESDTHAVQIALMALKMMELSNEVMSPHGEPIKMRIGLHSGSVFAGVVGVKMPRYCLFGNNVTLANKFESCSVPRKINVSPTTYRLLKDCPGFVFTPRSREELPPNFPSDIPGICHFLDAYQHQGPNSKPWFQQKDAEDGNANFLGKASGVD
# ASSAY_PROCEDURE: Action on recombinant guanylate cyclase reporter cell line
# Format: cell-based
# RUN_CONDITIONS: in some cases mean values obtained from individual determinations
Where a name gives a salt, the structure may show the parent alone.
Classify by measured MEC (minimal effective concentration): criterion met if it is equal to or exceeds 0.3 µM, criterion not met if it is smaller.

Inquiry: Quick check, MEC (minimal effective concentration) >= 0.3 µM? CC[C@H](CO)NC(=O)c1c(C)nc2c(OCc3c(F)cccc3F)cccn12 [Example 43]
Reply text: criterion not met

Inquiry: Quick check, MEC (minimal effective concentration) >= 0.3 µM? Cc1nc2c(OCc3ccccc3)cccn2c1C(=O)N[C@@H](C)CO [Example 46]
Reply text: criterion met

Inquiry: Quick check, MEC (minimal effective concentration) >= 0.3 µM? Cc1nc2c(OCc3c(F)cccc3F)cccn2c1C(=O)N[C@@H](CO)CC(C)C [Example 39]
Reply text: criterion not met

Inquiry: Quick check, MEC (minimal effective concentration) >= 0.3 µM? CCc1nc2c(OCC3CCCCC3)cccn2c1C(=O)N[C@H](C)CO [Example 55, formic acid salt]
Reply text: criterion not met

Inquiry: Quick check, MEC (minimal effective concentration) >= 0.3 µM? CCCCC(NC(=O)c1c(C)nc2c(OCCC(C)C)cc(C)cn12)C(C)(C)O (single isomer, unassigned) [Example 167]
Reply text: criterion met

====

# EXPERIMENTAL_SYSTEM: recombinant guanylate cyclase reporter cell line (Rattus norvegicus, UniProt P19686+P20595)
# Construct: expressed in transfected cells
# ASSAY_PROCEDURE: Action on recombinant guanylate cyclase reporter cell line
# Type: cell-based
# RUN_CONDITIONS: in some cases mean values obtained from individual determinations
MEC (minimal effective concentration) overview

Past entries and their recorded results:
{"MOLECULE": "Cc1nc2c(OCc3c(F)cccc3F)cccn2c1C(=O)NCC(O)C(F)(F)F (single isomer, unassigned; ent-8) [Example 109]", "RESULT": "0.1 µM"}
{"MOLECULE": "Cc1cc(OCc2ncccc2F)c2nc(C)c(C(=O)NCC(O)C(F)(F)F)n2c1 (racemic)", "RESULT": "3 µM"}

We now examine a further molecule.
Entry Cc1nc2c(OCc3ncccc3F)cccn2c1C(=O)NC(CCCC(F)(F)F)C(C)(C)O (single isomer, unassigned; ent-8) [Example 183] ; MEC (minimal effective concentration) = 0.3 µM

====

# ASSAY_PROCEDURE: Determination of pharmacokinetic parameters following intravenous and oral administration (rats)
# Format: in vivo, male Wistar rats
# RUN_CONDITIONS: following intravenous and peroral administration
READOUT_TYPE: AUCnorm (kg·h/L)
Give the quantity in kg·h/L, number only.

Past entries and their recorded results:
{"COMPOUND": "Cc1nc2c(OCc3ncccc3F)cc(Cl)cn2c1C(=O)NC(CCC(F)(F)C(F)(F)F)C(C)(C)O (single isomer, unassigned; ent-6)", "RESULT": 2.9}
{"COMPOUND": "Cc1cc(OCc2ncccc2F)c2nc(C)c(C(=O)NC(CCC(F)(F)C(F)(F)F)C(C)(C)O)n2c1 (single isomer, unassigned; ent-8)", "RESULT": 2.0}

Entry Cc1nc2c(OCc3ncccc3F)cc(Cl)cn2c1C(=O)NC(CCCC(F)(F)F)C(C)(C)O (single isomer, unassigned; ent-6) ; AUCnorm = 2.3

Entry Cc1cc(OCc2ncccc2F)c2nc(C)c(C(=O)NC(CCCC(F)(F)F)C(C)(C)O)n2c1 (single isomer, unassigned; ent-8) ; AUCnorm = 2.5

====

# EXPERIMENTAL_SYSTEM: recombinant guanylate cyclase reporter cell line (Rattus norvegicus, UniProt P19686+P20595)
# Construct: expressed in transfected cells
# ASSAY_PROCEDURE: Action on recombinant guanylate cyclase reporter cell line
# Assay type: cell-based
# RUN_CONDITIONS: in some cases mean values obtained from individual determinations
Where a name gives a salt, the structure may show the parent alone.
READOUT_TYPE: MEC (minimal effective concentration) (µM)
Give the quantity in µM, number only.

Past entries and their recorded results:
{"COMPOUND": "CCCC[C@@H](NC(=O)c1c(C)nc2c(OCc3c(F)cccc3F)cccn12)C(C)O (some centres unmarked) [Example 139]", "RESULT_UNIT": "µM", "MEC (minimal effective concentration)": 0.03}
{"COMPOUND": "CCC(O)CNC(=O)c1c(C)nc2c(OCCC(C(F)(F)F)C(F)(F)F)cc(C)cn12 (racemic) [Example 174]", "RESULT_UNIT": "µM", "MEC (minimal effective concentration)": 3.0}
{"COMPOUND": "CC[C@H](C)[C@@H](CO)NC(=O)c1c(C)nc2c(OCC3CCCCC3)cccn12 [Example 91]", "RESULT_UNIT": "µM", "MEC (minimal effective concentration)": 1.0}
{"COMPOUND": "Cc1nc2c(OCc3c(F)cccc3F)cccn2c1C(=O)NC(CO)CCCC(F)(F)F (racemic) [Example 114]", "RESULT_UNIT": "µM", "MEC (minimal effective concentration)": 0.03}
{"COMPOUND": "Cc1nc2c(OCc3c(Cl)cccc3Cl)cccn2c1C(=O)NC(CO)CO [Example 53]", "RESULT_UNIT": "µM", "MEC (minimal effective concentration)": 10}
{"COMPOUND": "CCCC[C@H](CO)NC(=O)c1c(C)nc2c(OCc3cccc(F)c3)cccn12 [Example 6]", "RESULT_UNIT": "µM", "MEC (minimal effective concentration)": 0.1}

Entry CCCC[C@H](CO)NC(=O)c1c(C)nc2c(OCc3ccccc3Cl)cccn12 [Example 4] ; MEC (minimal effective concentration) = 0.1

Entry Cc1nc2c(OCC3CCCCC3)cccn2c1C(=O)NC1(CO)CCCC1 [Example 92] ; MEC (minimal effective concentration) = 1.0

Entry Cc1nc2c(OCc3c(F)cccc3F)cccn2c1C(=O)NC(CO)CCC(O)C(F)(F)F (single isomer, unassigned) [Example 138] ; MEC (minimal effective concentration) = 0.1

Entry Cc1nc2c(OCc3c(F)cccc3F)cccn2c1C(=O)N[C@@H](CO)C(C)(C)O [Example 165] ; MEC (minimal effective concentration) = 1.0

Entry Cc1nc2c(OCc3c(F)cccc3F)cccn2c1C(=O)NCCC1(O)CCCCC1 [Example 116] ; MEC (minimal effective concentration) = 0.3

Entry Cc1nc2c(OCC3CCCCC3)cccn2c1C(=O)NC(CO)(CO)CO [Example 77, formate] ; MEC (minimal effective concentration) = 0.3

Entry CCCC[C@H](CO)NC(=O)c1c(C)nc2c(OCc3c(F)c(F)cc(F)c3F)cccn12 [Example 7] ; MEC (minimal effective concentration) = 0.3

====

# EXPERIMENTAL_SYSTEM: recombinant guanylate cyclase reporter cell line (Rattus norvegicus, UniProt P19686+P20595)
# Construct: expressed in transfected cells
# ASSAY_PROCEDURE: Action on recombinant guanylate cyclase reporter cell line
# Type: cell-based
# RUN_CONDITIONS: in some cases mean values obtained from individual determinations
READOUT_TYPE: MEC (minimal effective concentration)

Past entries and their recorded results:
{"COMPOUND": "CCCOCC(CO)NC(=O)c1c(C)nc2c(OCc3c(F)cccc3F)cccn12 (racemic) [Example 162]", "MEC (minimal effective concentration)": "0.3 µM"}
{"COMPOUND": "CCCC[C@H](CO)NC(=O)c1cnc2c(OCc3c(F)cccc3F)cccn12 [Example 62]", "MEC (minimal effective concentration)": "0.3 µM"}
{"COMPOUND": "CCOCC(CO)NC(=O)c1c(C)nc2c(OCc3c(F)cccc3F)cccn12 (single isomer, unassigned; ent-8) [Example 161]", "MEC (minimal effective concentration)": "1.0 µM"}

Entry Cc1cc(OCc2c(F)cncc2F)c2nc(C)c(C(=O)NC(CCC(F)(F)C(F)(F)F)C(C)(C)O)n2c1 (single isomer, unassigned; ent-8) [Example 193] ; MEC (minimal effective concentration) = 1 µM

Entry Cc1cc(OCCC(C(F)(F)F)C(F)(F)F)c2nc(C)c(C(=O)NC3CCCC3O)n2c1 (stereo not drawn) [Example 173] ; MEC (minimal effective concentration) = 3.0 µM

Entry Cc1cc(OCc2ncccc2F)c2nc(C)c(C(=O)NC(CCCC(F)(F)F)C(C)(C)O)n2c1 (single isomer, unassigned; ent-8) [Example 181] ; MEC (minimal effective concentration) = 0.3 µM
